experiment.description: Cation titration followed by absorbance or fluorescence excitation spectra: K⁺ binding
cond: 0.1 M tetramethylammonium chloride, 1-5 mM tris(hydroxymethyl)aminomethane, high pH; read-out: Dissociation constants (Kd) in mM for K⁺
# key: entry, value: Kd
Quick note: give the figure in mM, leave out the unit.

COc1cc2cc(-c3ccc(C(=O)O)c(C(=O)O)c3)oc2cc1N1CCOCCOCCN(c2cc3oc(-c4ccc(C(=O)O)c(C(=O)O)c4)cc3cc2OC)CCOCCOCC1; 83

Attention now shifts to the item below.
// query Kd value for entry COc1cc2cc(-c3ccc(C(=O)O)cc3C(=O)O)oc2cc1N1CCOCCOCCN(c2cc3oc(-c4ccc(C(=O)O)cc4C(=O)O)cc3cc2OC)CCOCCOCC1
8

====

experiment.description: Effective Kd for Na⁺ against a K⁺ background
Type: binding
cond: Na⁺-K⁺ mixtures, sum held constant at 135 mM, 1 mM Mg²⁺ present, pH 7.05; read-out: apparent dissociation constant for Na⁺
pKd: −log10 of the molar value.
quantity.name: pKd

So what does the record say about pKd for COc1cc2cc(-c3ccc(C(=O)O)cc3C(=O)O)oc2cc1N1CCOCCOCCN(c2cc3oc(-c4ccc(C(=O)O)cc4C(=O)O)cc3cc2OC)CCOCC1 [Compound 2PP] ?
1.72 to 1.77

====

experiment.description: Fluorescence excitation/emission spectra and quantum efficiency
Type: physicochemical
cond: 100 mM tetramethylammonium chloride, no Na⁺; not corrected for detector sensitivity
quantity.name: Emission maxima -Na⁺
# answer = value followed by unit

Solved entries:
COc1cc2cc(-c3ccc(C(=O)O)cc3C(=O)O)oc2cc1N1CCOCCOCCN(c2cc3oc(-c4ccc(C(=O)O)cc4C(=O)O)cc3cc2OC)CCOCC1 [Compound 2PP]; 551 nanometers
Cc1ccc2c(n1)c(N1CCOCCOCCN(c3cc4oc(-c5ccc(C(=O)O)c(C(=O)O)c5)cc4c4ccc(C)nc34)CCOCC1)cc1oc(-c3ccc(C(=O)O)c(C(=O)O)c3)cc12 [Compound 2GG]; 486 nanometers

As a next step, examine the molecule that follows.
Recorded Emission maxima -Na⁺ for COc1cc2cc(-c3ncc(C(=O)O)o3)oc2cc1N1CCOCCOCCN(c2cc3oc(-c4ncc(C(=O)O)o4)cc3cc2OC)CCOCC1 [Compound 2OO] , please?
515 nanometers

====

As shown below, each of these compounds has a reported Kd value.
experiment.description: Cation titration followed by absorbance or fluorescence excitation spectra: Na⁺ binding
cond: footnote h: 3.0 M ionic strength (3.0 M NaCl mixed with 3.0 M tetramethylammonium chloride); read-out: Dissociation constants (Kd) in mM for Na⁺
Numbers only here, please. The scale is mM.

Example cases with answers are listed next.
CC(=O)Nc1ccc(N2CCOCCOCCN(c3ccc(NC(C)=O)c4cccnc34)CCOCC2)c2ncccc12 [Compound 2CC]; 2.4
O=C(O)CCC(=O)Nc1ccc(N2CCOCCOCCN(c3ccc(NC(=O)CCC(=O)O)c4cc5ccccc5nc34)CCOCC2)c2nc3ccccc3cc12 [Compound 2II]; 0.4
CC(=O)Nc1ccc(N2CCOCCOCCN(c3ccc(NC(C)=O)c4ccc(C)nc34)CCOCC2)c2nc(C)ccc12 [Compound 2DD]; 4.4

Reported Kd, compound COc1cc2cc(-c3ncc(C(=O)O)o3)oc2cc1N1CCOCCOCCN(c2cc3oc(-c4ncc(C(=O)O)o4)cc3cc2OC)CCOCC1 [Compound 2OO] : ____
22

====

As shown below, each of these compounds has a reported Absorbance maxima +Na⁺, footnote l (extinction coefficient) value.
experiment.description: UV absorbance spectra without and with saturating cation
Format: physicochemical
cond: number is 10⁻³ x the extinction coefficient; saturating K⁺ rather than Na⁺
Give the value, in units of M⁻¹ cm⁻¹, as a plain number.

COc1cc2cc(-c3ccc(C(=O)O)c(C(=O)O)c3)oc2cc1N1CCOCCOCCN(c2cc3oc(-c4ccc(C(=O)O)c(C(=O)O)c4)cc3cc2OC)CCOCCOCC1; 25000

Looking for the measured Absorbance maxima +Na⁺, footnote l (extinction coefficient) of COc1cc2cc(-c3ccc(C(=O)O)cc3C(=O)O)oc2cc1N1CCOCCOCCN(c2cc3oc(-c4ccc(C(=O)O)cc4C(=O)O)cc3cc2OC)CCOCCOCC1 , can you help?
42000

====

experiment.description: Fluorescence excitation/emission spectra and quantum efficiency
Assay type: physicochemical
cond: no Na⁺; relative to quinine bisulfate in 1 N H₂SO₄ (0.55)
Form field: Quantum efficiency -Na⁺ (one value per entry).

Cc1ccc2c(n1)c(N1CCOCCOCCN(c3cc4oc(-c5ccc(C(=O)O)c(C(=O)O)c5)cc4c4ccc(C)nc34)CCOCC1)cc1oc(-c3ccc(C(=O)O)c(C(=O)O)c3)cc12; .005
COc1cc2cc(-c3ccc(C(=O)O)cc3C(=O)O)oc2cc1N1CCOCCOCCN(c2cc3oc(-c4ccc(C(=O)O)cc4C(=O)O)cc3cc2OC)CCOCCOCC1; .024

Next:
If you can, please state the reported Quantum efficiency -Na⁺ value of COc1cc2cc(-c3ccc(C(=O)O)c(C(=O)O)c3)oc2cc1N1CCOCCOCCN(c2cc3oc(-c4ccc(C(=O)O)c(C(=O)O)c4)cc3cc2OC)CCOCC1 .
.036

====

experiment.description: Cation titration followed by absorbance or fluorescence excitation spectra: Mg²⁺ binding
cond: 0.1 M tetramethylammonium chloride, 1-5 mM tris(hydroxymethyl)aminomethane, high pH; listed as 2PP (SBFI); read-out: Dissociation constants (Kd) in mM for Mg²⁺
quantity.name: Kd (mM)
Expressed in mM, but write only the number.

Given the compound COc1cc2cc(-c3ccc(C(=O)O)cc3C(=O)O)oc2cc1N1CCOCCOCCN(c2cc3oc(-c4ccc(C(=O)O)cc4C(=O)O)cc3cc2OC)CCOCC1 [Compound 2PP] , what is its reported Kd?
60
